Recorded log EC50, MOR261-1 by entry
# Tested on: mouse odorant receptors (ORs)
# TEST_NAME: CRE-luciferase assay of odorant receptor activation (Dual-Glo, Hana3A cells, RTP1S), dose-response EC50
# Type: cell-based
# MEASUREMENT_CONTEXT: receptor MOR261-1; 0 = no response
Form: value (number only, do not type unit).

Guide cases for log EC50, MOR261-1, answers given:
CCCCCCCCCO | −4.914
CCCCCCCO | −3.382
CCCCCCCCCCO | −3.273

stdin: Item under review: CCCCCCCCO . Reported log EC50, MOR261-1?
stdout: −5.192
